experimental details: Pharmacokinetics and oral bioavailability in the mouse
Format: in vivo
measurement parameters: 10 mg/kg, oral vs IV dose-normalized AUC
Decision: F on AUC compared against 60%; not below it gives label 1, below it gives label 0.

Some entries whose results are on file:
NC(=O)c1cccc2c1C(=O)N(CCN1CCc3ccccc3C1)C2 [(3)]; label 0
NC(=O)c1cccc2c1C(=O)N(C1CCN(Cc3ccoc3)CC1)C2 [(14)]; label 0
NC(=O)c1cccc2c1C(=O)N(C1CCN(Cc3ccccn3)CC1)C2 [(15)]; label 1
NC(=O)c1cccc2c1C(=O)N(C1CCN(Cc3ccc[nH]3)CC1)C2 [(16)]; label 0

--- query ---
API: above_or_equal(metric=F on AUC, cutoff=60%) for item NC(=O)c1cccc2c1C(=O)N(C1CCN(C3CCCCC3)CC1)C2 [(11)]
label 1

Source: patent US11420940B2
